- System: c-Abl (mouse);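 note: 11-residue human phosphosite peptides and single-mutation variants displayed on the E. coli surface, counted by deep sequencing, each peptide's frequency after selection divided by its frequency in the unselected input library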;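 note: frequency after pTyr selection over input frequency; kinase dosed for 20-30% of maximal phosphorylation in three min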
- TEST: phosphorylation enrichment, bacterial display (enrichment ratio); higher = better substrate or ligand; peptides without Tyr show the background
Below is a list of entries, each paired with its recorded phosphorylation enrichment value.

Data request: # return recorded phosphorylation enrichment for entry TQKLAYMELQQ [CENPF_Y700]
Data returned: 0.94

Data request: # return recorded phosphorylation enrichment for entry IPTPAYQSLPA [PDCD6IP_Y727_S730L]
Data returned: 0.546

Data request: # return recorded phosphorylation enrichment for entry GAAMLYFPSVS [GPR143_Y177_YF]
Data returned: 0.535

Data request: # return recorded phosphorylation enrichment for entry SGRRRYTIAAL [TTR_Y125_P122R]
Data returned: 0.512

Data request: # return recorded phosphorylation enrichment for entry GHPFAYDWISI [BEST1_Y227_L224P_YF]
Data returned: 0.562

***
Data request: # return recorded phosphorylation enrichment for entry FKEQGYHRLPP [RIN1_Y681_YF]
Data returned: 0.345

Data request: # return recorded phosphorylation enrichment for entry SCRSKYVGLWG [KCNQ1_Y184_G179S]
Data returned: 0.541
